- Test system: old DBA/2J mice
- experiment_description: Reduction of intraocular pressure (IOP) after application to the eye, TONOLab tonometer
- Assay type: in vivo
- run_conditions: 100 μg to the eye in Tocrisolve, 60 minutes, versus basal IOP
Entries and their measured Intraocular Pressure Decrease follow.
Report as a plain number; the unit % is understood.

Study these solved cases before continuing.
Cc1cc2c(s1)-c1c(c(C(=O)NC3C4(C)CCC(C4)C3(C)C)nn1-c1ccc(Cl)cc1Cl)C2 (stereo not drawn) :: 14.0
Cc1ccc(Cn2nc(C(=O)NC3CC(C)CCC3C(C)C)c3c2-c2sc(C)cc2C3)cc1 (stereo not drawn) :: 22.4
CCOC(=O)c1nn(-c2ccc(S(N)(=O)=O)cc2)c2c1CCc1sccc1-2 :: −0.2
NC(=O)c1nn(-c2ccc(S(N)(=O)=O)cc2)c2c1CCc1sccc1-2 :: 0.4
Cc1c(C(=O)c2cccc3ccccc23)c2cccc3c2n1[C@H](CN1CCOCC1)CO3 :: 21.3

Next:
# Cc1ccc(Cn2nc(C(=O)NCC3CCC4CC3C4(C)C)c3c2-c2sc(C)cc2C3)cc1 (stereo not drawn) with old DBA/2J mice: Intraocular Pressure Decrease is 22.8
